This section lists pKi readings for fatty acid amide hydrolase (FAAH, EC 3.5.1.4) (Mus musculus, UniProt O08914).
pKi: −log10 of the molar value.

Ask | Item NC(=O)c1ccn(-c2cccc(OC(=O)NC3CCCCC3)c2)c1 has what recorded pKi?
Reply | 7.00 to 8.00

Ask | Further, for Cc1cc(C(N)=O)c(-c2cccc(OC(=O)NCCCCCCc3ccccc3)c2)s1 ?
Reply | > 8.00

Ask | Further, for CCCCNC(=O)Oc1cccc(-c2oc(C)cc2C(N)=O)c1 ?
Reply | 6.30 to 7.00

Ask | Further, for Cc1oc(-c2cccc(OC(=O)NCCCCCCc3ccccc3)c2)cc1C(N)=O ?
Reply | > 8.00

Ask | Further, for Cc1cc(C(N)=O)c(-c2cccc(OC(=O)NCCCCCCc3ccccc3)c2)o1 ?
Reply | > 8.00

Ask | Further, for CCCCNC(=O)Oc1cccc(-n2ccc(C(N)=O)c2)c1 ?
Reply | 7.00 to 8.00

Ask | Further, for C#CCCCCCCCCCNC(=O)Oc1cccc(-n2ccc(C(N)=O)c2)c1 ?
Reply | > 8.00

Ask | Further, for NC(=O)c1ccn(-c2cccc(OC(=O)NCCCCCCc3ccccc3)c2)c1 ?
Reply | > 8.00
